testedTarget: hMC-4R (Homo sapiens)
testSummary: Membrane binding assay, competition with fluorescence labeled NDP-alpha-MSH (fluorescence polarization)
Design: expressed in transfected cells; host or cells: HEK293 cells (membrane preparations)
protocolConditions: HEK293 cell membrane preparations
Exercise: state measured IC50 for each of the molecules provided.

Would you mind listing IC50 for each of the following molecules?
1. CC(C)CCN(CCC(C)C)C(=O)c1ccc2nc(CCCN)c(CCCN3CCCC3)n2c1
2. COCCOC(=O)c1nc2ccc(C(=O)N(CCC(C)C)CCC(C)C)cn2c1CCCN1CCCC1
3. CC(C)CCN(CCC(C)C)C(=O)c1ccc2nc(C3CC3)c(CCCN3CCCC3)n2c1
4. CC(C)CCN(CCC(C)C)C(=O)c1ccc2nc(CCCN(C)C)c(CCCN3CCCC3)n2c1

< 100 nM
< 100 nM
100 to 1000 nM
< 100 nM

Would you mind listing IC50 for each of the following molecules?
1. CC(C)CCN(CCC(C)C)C(=O)c1ccc2nc(-c3n[nH]c(=O)n3C)c(CCCN3CCCC3)n2c1
2. CC(C)CCN(CCC(C)C)C(=O)c1ccc2nc(C(=O)N3CCCC3)c(CCCN3CCCC3)n2c1

1: 100 to 1000 nM; 2: 100 to 1000 nM

* * *

testedTarget: hMC-4R (Homo sapiens, UniProt P32245)
Sequence (P32245 whole entry): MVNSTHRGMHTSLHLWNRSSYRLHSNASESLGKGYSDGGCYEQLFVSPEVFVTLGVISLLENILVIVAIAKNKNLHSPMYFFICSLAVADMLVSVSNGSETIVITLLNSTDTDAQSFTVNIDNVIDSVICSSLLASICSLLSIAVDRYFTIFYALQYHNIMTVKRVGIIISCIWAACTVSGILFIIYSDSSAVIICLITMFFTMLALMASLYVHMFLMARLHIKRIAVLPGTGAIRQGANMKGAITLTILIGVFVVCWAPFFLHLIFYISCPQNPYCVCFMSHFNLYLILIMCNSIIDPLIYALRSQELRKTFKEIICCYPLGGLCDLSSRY
testSummary: Functional assay, cAMP formation in HEK293 membrane preparations (fluorescence polarization)
valueKind: EC50

# smilesString, valueKind, valueMeasured
records = [
    ("Cc1noc(-c2nc3ccc(C(=O)N(CCC(C)C)CCC(C)C)cn3c2CCCN2CCCC2)n1", "EC50", "< 100 nM"),
    ("CC(C)CCN(CCC(C)C)C(=O)c1ccc2nc(C(=O)OC(C)C)c(CCCN3CCCC3)n2c1", "EC50", "100 to 1000 nM"),
    ("CC(C)CCN(CCC(C)C)C(=O)c1ccc2nc(CCCN(C)C)c(CCCN3CCCC3)n2c1", "EC50", "100 to 1000 nM"),
    ("COCc1noc(-c2nc3ccc(C(=O)N(CCC(C)C)CCC(C)C)cn3c2CCCN2CCCC2)n1", "EC50", "100 to 1000 nM"),
    ("CC(C)CCN(CCC(C)C)C(=O)c1ccc2nc(C#N)c(CCCN3CCCC3)n2c1", "EC50", "100 to 1000 nM"),
]

Kindly consider the entry below.
Form: Entry = `CC(C)CCN(CCC(C)C)C(=O)c1ccc2nc(-c3nc(C(C)(C)O)no3)c(CCCN(C)C)n2c1` | System = hMC-4R (Homo sapiens, UniProt P32245) | EC50 = ____
100 to 1000 nM

* * *

testedTarget: hMC-4R (Homo sapiens, UniProt P32245)
testSummary: Membrane binding assay, competition with fluorescence labeled NDP-alpha-MSH (fluorescence polarization)
Parameters: expressed in transfected cells; host or cells: HEK293 cells (membrane preparations)
protocolConditions: HEK293 cell membrane preparations
valueKind: IC50

Would you mind listing IC50 for each of the following molecules?
1. COCc1noc(-c2nc3ccc(C(=O)N(CCC(C)C)CCC(C)C)cn3c2CCCN(C)C)n1
2. CC(C)CCN(CCC(C)C)C(=O)c1ccc2nc(CCCNC(=O)OC(C)(C)C)c(CCCN3CCCC3)n2c1

100 to 1000 nM
< 100 nM

Would you mind listing IC50 for each of the following molecules?
1. Cc1noc(-c2nc3ccc(C(=O)N(CCC(C)C)CCC(C)C)cn3c2CCCN2CCCC2)n1
2. CCNC(=O)c1nc2ccc(C(=O)N(CCC(C)C)CCC(C)C)cn2c1CCCN1CCCC1

< 100 nM
100 to 1000 nM

Would you mind listing IC50 for each of the following molecules?
1. CC(C)CCN(CCC(C)C)C(=O)c1ccc2nc(-c3ccc4nccn4c3)c(CCCN3CCCC3)n2c1
2. CC(C)CCN(CCC(C)C)C(=O)c1ccc2nc(-c3nc(C4CC4)no3)c(CCCN3CCCC3)n2c1
3. CC(C)CCN(CCC(C)C)C(=O)c1ccc2nc(-c3nc(C(C)(C)O)no3)c(CCCN3CCCC3)n2c1
4. CC(C)CCN(CCC(C)C)C(=O)c1ccc2nc(CO)c(CCCN3CCCC3)n2c1
5. CC(C)CCN(CCC(C)C)C(=O)c1ccc2nc(C(=O)OCC(C)C)c(CCCN3CCCC3)n2c1
6. CC(C)CCN(CCC(C)C)C(=O)c1ccc2nc(C(=O)OC(C)C)c(CCCN3CCCC3)n2c1

1: < 100 nM; 2: < 100 nM; 3: 100 to 1000 nM; 4: 100 to 1000 nM; 5: < 100 nM; 6: 100 to 1000 nM
